Reported EC50 by item:
# SYSTEM UNDER TEST: rat EP2 receptor (Rattus norvegicus, UniProt Q62928)
# Construct: cells seeded on STEP plates
# Sequence (Q62928 whole entry): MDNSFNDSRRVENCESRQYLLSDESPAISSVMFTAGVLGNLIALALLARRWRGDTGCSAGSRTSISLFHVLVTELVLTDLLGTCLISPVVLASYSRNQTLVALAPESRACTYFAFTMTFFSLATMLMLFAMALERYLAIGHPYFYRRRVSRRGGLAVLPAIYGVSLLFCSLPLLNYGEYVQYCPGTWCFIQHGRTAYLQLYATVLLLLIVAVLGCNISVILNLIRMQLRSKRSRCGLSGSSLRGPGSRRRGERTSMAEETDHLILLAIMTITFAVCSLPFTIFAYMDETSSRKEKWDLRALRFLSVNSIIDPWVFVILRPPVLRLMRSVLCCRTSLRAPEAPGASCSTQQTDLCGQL
# ASSAY COMMENT: SEAP activity assay on EP2 STEP plate
# MEASUREMENT CONTEXT: SEAP luminescence, 6-8 hours of stimulation; read-out: STEP cell functional assay EC50 SEAP/EP2
Report the value in nM with no unit label.

Answered examples (3):
Recorded result, CC#CCC(C)[C@H](O)/C=C/[C@H]1CCC(=O)N1CCc1ccc(C(=O)O)cc1 (mixture of isomers) , EC50: 120

Looking up CC(CC#Cc1ccccc1)[C@H](O)/C=C/[C@H]1CCC(=O)N1CCc1ccc(C(=O)O)cc1 (mixture of isomers) [Example 11C] , I found its EC50 recorded as 2960

Quick note, EC50 for CC(CC#Cc1ccccc1)[C@H](O)/C=C/[C@H]1CCC(=O)N1CCCCCCC(=O)O (mixture of isomers) landed at 830

Here is the next item to consider.
Reported EC50 of CC#CCC(C)[C@H](O)/C=C/[C@H]1CCC(=O)N1CCCCCCC(=O)O (mixture of isomers) : 760

----------
# SYSTEM UNDER TEST: rat EP4 receptor (Rattus norvegicus)
# Construct: cells seeded on STEP plates
# Sequence (P43114 whole entry): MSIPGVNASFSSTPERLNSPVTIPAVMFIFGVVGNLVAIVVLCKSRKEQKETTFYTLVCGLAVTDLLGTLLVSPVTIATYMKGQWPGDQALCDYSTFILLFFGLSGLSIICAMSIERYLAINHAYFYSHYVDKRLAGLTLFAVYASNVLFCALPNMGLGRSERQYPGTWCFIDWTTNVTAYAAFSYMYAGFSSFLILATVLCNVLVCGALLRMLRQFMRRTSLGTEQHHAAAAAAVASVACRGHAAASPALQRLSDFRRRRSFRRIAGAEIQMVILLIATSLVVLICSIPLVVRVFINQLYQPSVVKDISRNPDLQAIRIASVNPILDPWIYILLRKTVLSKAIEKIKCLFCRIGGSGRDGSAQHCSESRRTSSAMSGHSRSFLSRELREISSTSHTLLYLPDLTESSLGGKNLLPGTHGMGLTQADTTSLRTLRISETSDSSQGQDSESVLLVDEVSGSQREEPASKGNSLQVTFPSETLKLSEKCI
# ASSAY COMMENT: SEAP activity assay on EP4 STEP plate
# Format: cell-based
# MEASUREMENT CONTEXT: SEAP luminescence, 6-8 hours of stimulation; read-out: STEP cell functional assay EC50 SEAP/EP4
ENDPOINT: EC50 (nM)
Numeric only. Scale: nM

So for CCC#CC[C@H](C)[C@H](O)/C=C/[C@H]1CCC(=O)N1CCCCCCC(=O)O , the logged EC50 turned out to be 0.19

For CCCC#CCC(C)[C@H](O)/C=C/[C@H]1CCC(=O)N1CCCCCCC(=O)OC (mixture of isomers) the compound record lists EC50 as 8.64

So, CCC#CC[C@H](C)[C@H](O)/C=C/[C@H]1CCC(=O)N1CCc1ccc(C(=O)O)cc1 ? Its EC50 was 0.02

Entry CC#CC[C@@H](C)[C@H](O)/C=C/[C@H]1CCC(=O)N1CCCCCCC(=O)O ; EC50 = 5.79

Looking up CCC#CCC(C)[C@@H](O)/C=C/[C@H]1CCC(=O)N1CCCCCCC(=O)O (mixture of isomers) , I found its EC50 recorded as 0.145

The reported value for CC(CC#Cc1ccccc1)[C@H](O)/C=C/[C@H]1CCC(=O)N1C/C=C\c1ccc(C(=O)O)s1 (mixture of isomers) [Example 16C] in terms of EC50 is 67.2

Entry CCC#C[C@@H](O)/C=C/[C@H]1CCC(=O)N1CCCCCCC(=O)O , EC50 reported as 4.79

Entry CCCC#CCC(C)[C@H](O)/C=C/[C@H]1CCC(=O)N1CCCCCCC(=O)O (mixture of isomers) ; EC50 = 0.085

Field EC50 (entry CC#CC[C@H](C)[C@H](O)/C=C/[C@H]1CCC(=O)N1CCCCCCC(=O)O ) reads 0.57

Form field EC50, entry CCC#CCC(C)[C@@H](O)/C=C/[C@H]1CCC(=O)N1C/C=C\c1ccc(C(=O)O)s1 (mixture of isomers) [Example 15D] : 1600

According to the records, this compound CC(CC#Cc1ccccc1)[C@H](O)/C=C/[C@H]1CCC(=O)N1CCc1ccc(C(=O)O)cc1 (mixture of isomers) [Example 11C] displays EC50 of 0.054

CC#CCC(C)[C@H](O)/C=C/[C@H]1CCC(=O)N1CCc1ccc(C(=O)O)cc1 (mixture of isomers) has a reported EC50 of 0.19

Recorded EC50 (compound CCC#CC[C@@H](C)[C@H](O)/C=C/[C@H]1CCC(=O)N1CCCCCCC(=O)O ): 1.06

According to the records, this compound CC(CC#Cc1ccccc1)[C@@H](O)/C=C/[C@H]1CCC(=O)N1CCc1ccc(C(=O)O)cc1 (mixture of isomers) [Example 11D] displays EC50 of 3.51

Lab note: measured EC50 of CC#CCC(C)[C@H](O)/C=C/[C@H]1CCC(=O)N1Cc1ccc(CC(=O)O)cc1 (mixture of isomers) [Example 12C] was 2290

EC50 reading for CCC#CCC(C)[C@H](O)/C=C/[C@H]1CCC(=O)N1CCCc1ccc(C(=O)O)s1 (stereo partly shown) [Example 17F] : 0.091

In plain terms, CC(CC#Cc1ccccc1)[C@@H](O)/C=C/[C@H]1CCC(=O)N1CCCc1ccc(C(=O)O)s1 (stereo partly shown) [Example 18D] has a documented EC50 of 2.03

EC50 reported for this compound CC(CC#Cc1ccccc1)[C@@H](O)/C=C/[C@H]1CCC(=O)N1C/C=C\c1ccc(C(=O)O)s1 (mixture of isomers) [Example 16D] : 1200

Record summary for CC#CCC(C)[C@H](O)/C=C/[C@H]1CCC(=O)N1CCc1ccc(C(=O)OC)cc1 (mixture of isomers) : reported EC50 = 6.74
